- Study System: recombinant homotrimeric HA A/chicken/Vietnam/NCVD-016/08 H5N1 (Influenza A virus A/chicken/Vietnam/NCVD-016/2008(H5N1))
- Assay Protocol: protein microarray, purified IgG, trimeric HA
- Condition Notes: remark: other sources report otherwise
Trimeric HA Binding: RLU values by entry
Only the number, expressed in RLU, is required.

TCN-552 (5249_I23) (antibody, V domains shown) VH: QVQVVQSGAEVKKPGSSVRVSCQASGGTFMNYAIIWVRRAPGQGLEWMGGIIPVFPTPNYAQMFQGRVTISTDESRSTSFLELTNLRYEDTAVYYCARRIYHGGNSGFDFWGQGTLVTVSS VL: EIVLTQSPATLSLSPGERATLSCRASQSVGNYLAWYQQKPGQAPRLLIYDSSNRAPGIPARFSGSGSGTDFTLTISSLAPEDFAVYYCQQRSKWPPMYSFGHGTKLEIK ... 4300

[in] Entry TCN-538 (3206_O17) (antibody, V domains shown) VH: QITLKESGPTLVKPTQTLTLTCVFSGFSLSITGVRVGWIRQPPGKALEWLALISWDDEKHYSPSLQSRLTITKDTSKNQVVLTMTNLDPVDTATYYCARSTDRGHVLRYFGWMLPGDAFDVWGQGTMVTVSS VL: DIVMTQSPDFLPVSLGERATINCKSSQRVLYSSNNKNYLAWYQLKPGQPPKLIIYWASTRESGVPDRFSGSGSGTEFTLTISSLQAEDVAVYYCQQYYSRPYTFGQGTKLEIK has what Trimeric HA Binding: RLU?
[out] 1060
